The entries below come with measured Paw swelling values attached.
System: Mus musculus
Experiment: Tested for antiinflammatory activity on mouse type II collagen arthritis as Paw swelling of all animals in each group on day 37 at intraperitoneal dose of 3 mg/kg
Assay type: functional
Use mm as the unit, but write only the number.

Consider the reported Paw swelling for these compounds:
Cc1c(CCc2ccc(C(=O)NC(CCC(=O)O)C(=O)O)cc2)cnc2nc(N)nc(N)c12 (centres undefined) : 3.09
C#CCN(Cc1cnc2nc(N)nc(N)c2c1CC)c1ccc(C(=O)NC(CCC(=O)O)C(=O)O)cc1 (centres undefined) : 2.24
C=CCN(Cc1cnc2nc(N)nc(N)c2c1C)c1ccc(C(=O)NC(CCC(=O)O)C(=O)O)cc1 (centres undefined) : 2.14

Moving on to the next compound.
Query string: Requested field: Paw swelling. Item: Cc1c(CN(C)c2ccc(C(=O)NC(CCC(=O)O)C(=O)O)s2)cnc2nc(N)nc(N)c12 (centres undefined)
Result string: 2.14

====

Tested on: Mus musculus
Test: Incidence of disease (mouse type II collagen) was scored as the percentage of animals within each experimental group that exhibited joint or limb inflammation on day 30 at intraperitoneal dose of 1.5 mg/kg
Assay type: functional
Attribute Measured: Animals

Consider the reported Animals for these molecules:
CCC(Cc1cnc2nc(N)nc(N)c2c1)c1ccc(C(=O)NC(CCC(=O)O)C(=O)O)cc1 (configuration not stated) : 62%
Cc1c(CN(C)c2ccc(C(=O)NC(CCC(=O)O)C(=O)O)cc2)cnc2nc(N)nc(N)c12 (configuration not stated) : 12%
CCc1c(CN(C)c2ccc(C(=O)NC(CCC(=O)O)C(=O)O)s2)cnc2nc(N)nc(N)c12 (configuration not stated) : 12%
C#CCN(Cc1cnc2nc(N)nc(N)c2c1C)c1ccc(C(=O)NC(CCC(=O)O)C(=O)O)cc1 (configuration not stated) : 25%
C=CCN(Cc1cnc2nc(N)nc(N)c2c1C)c1ccc(C(=O)NC(CCC(=O)O)C(=O)O)cc1 (configuration not stated) : 12%

Query string: Form: Entry = CCCCc1c(CNc2ccc(C(=O)NC(CCC(=O)O)C(=O)O)cc2)cnc2nc(N)nc(N)c12 (configuration not stated) | System = Mus musculus | Animals = ____
Result string: 0%

Query string: Form: Entry = Nc1nc(N)c2cc(CNc3ccc(C(=O)NC(CCC(=O)O)C(=O)O)cc3)cnc2n1 (configuration not stated) | System = Mus musculus | Animals = ____
Result string: 12%

====

System: Mus musculus
Test: Tested for antiinflammatory activity on mouse type II collagen arthritis as Paw swelling of all animals in each group on day 30 at intraperitoneal dose of 3 mg/kg
Type: functional
The entries below come with measured Paw swelling values attached.
Use mm as the unit, but write only the number.

Consider the reported Paw swelling for these molecules:
Cc1c(CCc2ccc(C(=O)NC(CCC(=O)O)C(=O)O)cc2)cnc2nc(N)nc(N)c12 (centres undefined) : 2.73
CCCCc1c(CNc2ccc(C(=O)NC(CCC(=O)O)C(=O)O)cc2)cnc2nc(N)nc(N)c12 (centres undefined) : 2.15
Cc1c(CNc2ccc(C(=O)NC(CCC(=O)O)C(=O)O)cc2)cnc2nc(N)nc(N)c12 (centres undefined) : 2.18
C=CCN(Cc1cnc2nc(N)nc(N)c2c1C)c1ccc(C(=O)NC(CCC(=O)O)C(=O)O)cc1 (centres undefined) : 2.12
Cc1c(CN(C)c2ccc(C(=O)NC(CCC(=O)O)C(=O)O)s2)cnc2nc(N)nc(N)c12 (centres undefined) : 2.16

Query string: Requested field: Paw swelling. Item: CCc1c(CN(C)c2ccc(C(=O)NC(CCC(=O)O)C(=O)O)s2)cnc2nc(N)nc(N)c12 (centres undefined)
Result string: 2.15

Query string: Requested field: Paw swelling. Item: C#CCN(Cc1cnc2nc(N)nc(N)c2c1CC)c1ccc(C(=O)NC(CCC(=O)O)C(=O)O)cc1 (centres undefined)
Result string: 2.16

Query string: Requested field: Paw swelling. Item: C#CCN(Cc1cnc2nc(N)nc(N)c2c1C)c1ccc(C(=O)NC(CCC(=O)O)C(=O)O)cc1 (centres undefined)
Result string: 2.27

Query string: Requested field: Paw swelling. Item: C=CCC(Cc1cnc2nc(N)nc(N)c2c1C)c1ccc(C(=O)NC(CCC(=O)O)C(=O)O)cc1 (centres undefined)
Result string: 2.24

====

Tested on: L1210
Assay: Concentration required to inhibit the growth of L1210 cells.
Format: functional, cell-based
Conditions: Mus musculus
Attribute Measured: pIC50
Just the number, please; pIC50 means minus log10 of the concentration in mol/L.

Consider the reported pIC50 for these compounds:
CCC(Cc1cnc2nc(N)nc(N)c2c1)c1ccc(C(=O)NC(CCC(=O)O)C(=O)O)cc1 (configuration not stated) : 7.12
CCCN(Cc1cnc2nc(N)nc(N)c2c1C)c1ccc(C(=O)NC(CCC(=O)O)C(=O)O)cc1 (configuration not stated) : 7.96
C#CCN(Cc1cnc2nc(N)nc(N)c2c1)c1ccc(C(=O)NC(CCC(=O)O)C(=O)O)cc1 (configuration not stated) : 7.89
C#CCN(Cc1cnc2nc(N)nc(N)c2c1C)c1ccc(C(=O)NC(CCC(=O)O)C(=O)O)cc1 (configuration not stated) : 8.80
Cc1c(CNc2ccc(C(=O)NC(CCC(=O)O)C(=O)O)s2)cnc2nc(N)nc(N)c12 (configuration not stated) : 7.60
Cc1c(CCc2ccc(C(=O)NC(CCC(=O)O)C(=O)O)cc2)cnc2nc(N)nc(N)c12 (configuration not stated) : 6.42

Moving on to the next compound.
Query string: Requested field: pIC50. Item: C=CCC(Cc1cnc2nc(N)nc(N)c2c1C)c1ccc(C(=O)NC(CCC(=O)O)C(=O)O)cc1 (configuration not stated)
Result string: 8.05

====

Test system: Mus musculus
Assay: Tested for antiinflammatory activity on mouse type II collagen arthritis as Paw swelling of all animals in each group on day 37 at intraperitoneal dose of 3 mg/kg
Type: functional
Attribute Measured: Paw swelling (mm)
Use mm as the unit, but write only the number.

Query string: Requested field: Paw swelling. Item: Cc1c(CNc2ccc(C(=O)NC(CCC(=O)O)C(=O)O)cc2)cnc2nc(N)nc(N)c12 (centres undefined)
Result string: 2.42

Query string: Requested field: Paw swelling. Item: CCCCc1c(CNc2ccc(C(=O)NC(CCC(=O)O)C(=O)O)cc2)cnc2nc(N)nc(N)c12 (centres undefined)
Result string: 2.2

Query string: Requested field: Paw swelling. Item: CCCN(Cc1cnc2nc(N)nc(N)c2c1C)c1ccc(C(=O)NC(CCC(=O)O)C(=O)O)cc1 (centres undefined)
Result string: 2.17

Query string: Requested field: Paw swelling. Item: Cc1c(CN(C)c2ccc(C(=O)NC(CCC(=O)O)C(=O)O)cc2)cnc2nc(N)nc(N)c12 (centres undefined)
Result string: 2.47

Query string: Requested field: Paw swelling. Item: CCCc1c(CNc2ccc(C(=O)NC(CCC(=O)O)C(=O)O)cc2)cnc2nc(N)nc(N)c12 (centres undefined)
Result string: 2.23

Query string: Requested field: Paw swelling. Item: C=CCN(Cc1cnc2nc(N)nc(N)c2c1CC)c1ccc(C(=O)NC(CCC(=O)O)C(=O)O)cc1 (centres undefined)
Result string: 2.34

Query string: Requested field: Paw swelling. Item: CCc1c(CN(C)c2ccc(C(=O)NC(CCC(=O)O)C(=O)O)s2)cnc2nc(N)nc(N)c12 (centres undefined)
Result string: 2.2

Query string: Requested field: Paw swelling. Item: C=CCC(Cc1cnc2nc(N)nc(N)c2c1C)c1ccc(C(=O)NC(CCC(=O)O)C(=O)O)cc1 (centres undefined)
Result string: 2.99

Query string: Requested field: Paw swelling. Item: CCC(Cc1cnc2nc(N)nc(N)c2c1)c1ccc(C(=O)NC(CCC(=O)O)C(=O)O)cc1 (centres undefined)
Result string: 2.67

====

The entries below come with measured Animals values attached.
Test system: Mus musculus
Experiment: Incidence of disease (mouse type II collagen) was scored as the percentage of animals within each experimental group that exhibited joint or limb inflammation on day 44 at intraperitoneal dose of 1.5 mg/kg
Assay type: functional
Use % as the unit, but write only the number.

Consider the reported Animals for these molecules:
CCc1c(CN(C)c2ccc(C(=O)NC(CCC(=O)O)C(=O)O)s2)cnc2nc(N)nc(N)c12 (configuration not stated) : 50
Cc1c(CN(C)c2ccc(C(=O)NC(CCC(=O)O)C(=O)O)cc2)cnc2nc(N)nc(N)c12 (configuration not stated) : 62
CCCCc1c(CNc2ccc(C(=O)NC(CCC(=O)O)C(=O)O)cc2)cnc2nc(N)nc(N)c12 (configuration not stated) : 38
CCC(Cc1cnc2nc(N)nc(N)c2c1)c1ccc(C(=O)NC(CCC(=O)O)C(=O)O)cc1 (configuration not stated) : 88
C=CCN(Cc1cnc2nc(N)nc(N)c2c1CC)c1ccc(C(=O)NC(CCC(=O)O)C(=O)O)cc1 (configuration not stated) : 62

Query string: Requested field: Animals. Item: Cc1c(CNc2ccc(C(=O)NC(CCC(=O)O)C(=O)O)cc2)cnc2nc(N)nc(N)c12 (configuration not stated)
Result string: 75

Query string: Requested field: Animals. Item: C=CCN(Cc1cnc2nc(N)nc(N)c2c1C)c1ccc(C(=O)NC(CCC(=O)O)C(=O)O)cc1 (configuration not stated)
Result string: 50

Query string: Requested field: Animals. Item: Nc1nc(N)c2cc(CNc3ccc(C(=O)NC(CCC(=O)O)C(=O)O)cc3)cnc2n1 (configuration not stated)
Result string: 25

Query string: Requested field: Animals. Item: CCCN(Cc1cnc2nc(N)nc(N)c2c1C)c1ccc(C(=O)NC(CCC(=O)O)C(=O)O)cc1 (configuration not stated)
Result string: 25

Query string: Requested field: Animals. Item: C#CCN(Cc1cnc2nc(N)nc(N)c2c1C)c1ccc(C(=O)NC(CCC(=O)O)C(=O)O)cc1 (configuration not stated)
Result string: 62

Query string: Requested field: Animals. Item: Cc1c(CN(C)c2ccc(C(=O)NC(CCC(=O)O)C(=O)O)s2)cnc2nc(N)nc(N)c12 (configuration not stated)
Result string: 50

Query string: Requested field: Animals. Item: CCCc1c(CNc2ccc(C(=O)NC(CCC(=O)O)C(=O)O)cc2)cnc2nc(N)nc(N)c12 (configuration not stated)
Result string: 0
